Each recorded value in this set is attributed to patent US20250304549A1.

Structures can show the parent of a compound that is named as a salt.
What follows is a collection of IC50 values obtained with LSD1 (Homo sapiens (Human), UniProt O60341).
property: IC50 (nM)

molecule | endpoint_unit | measured_result
COc1cc(F)c(-c2cnc(N3CCC(NCc4ccc(/C=C/C(=O)NO)cc4)CC3)c(OC)c2-c2ccc(C#N)nc2)cc1O [Example 265, formate] | nM | 10.2
COc1ccc(-c2cnc(N3CCC(NCc4ccc(/C=C/C(=O)NO)cc4)CC3)c(CC#N)c2-c2ccc(C#N)c(F)c2)cc1O [Example 233, formate] | nM | 1.76
COc1ccc(-c2sc(C(=O)N3CCC(NCc4ccc(/C=C/C(=O)NO)cc4)CC3)cc2-c2ccc(C#N)c(F)c2)cc1O [Example 33, hydrochloride] | nM | 3.71
COc1ccc(-c2cnc(N3CCC4(CC3)CN(Cc3ccc(/C=C/C(=O)NO)cc3)C4)c(C#N)c2-c2ccc(C#N)c(F)c2)cc1O | nM | 21.4
COc1cc(F)c(-c2cnc(N3CCC(NCc4ccc(/C=C/C(=O)NO)cn4)CC3)c(C#N)c2-c2ccc(C#N)nc2)cc1O [Example 240, formate] | nM | 0.82
C/C(=C\C(=O)NO)c1ccc(CNC2CCN(c3ncc(-c4ccc(OCC(C)(C)O)c(O)c4)c(-c4ccc(C#N)c(F)c4)c3C#N)CC2)cc1 [Example 212, hydrochloride] | nM | 0.04
COc1ccc(-c2c(OCc3ccc(/C=C/C(=O)NO)cc3)cc(N3CCC(N)CC3)nc2-c2ccc(C#N)c(F)c2)cc1O [Example 2, hydrochloride] | nM | 1.58
COc1ccc(-c2cnc(N3CCC(NCc4ccc(/C=C/C(=O)NO)c(OC)c4)CC3)c(C#N)c2-c2ccc(C#N)nc2)cc1O [Example 257, formate] | nM | 7.93
COc1ccc(-c2cnc(N3CCC(NCc4ccc(OCC(=O)NO)cc4)CC3)c(C#N)c2-c2ccc(C#N)c(F)c2)cc1O | nM | 0.13
COc1cc(O)c(-c2cnc(N3CCC(NCc4ccc(/C=C/C(=O)NO)cc4)CC3)c(C#N)c2-c2ccc(C#N)c(F)c2)cc1O [Example 158, trifluoroacetate] | nM | 0.73
COc1ccc(-c2ccc(N3CCC(NCc4ccc(/C=C/C(=O)NO)cc4)CC3)c(C#N)c2-c2ccc(C#N)c(F)c2)cc1O | nM | 0.62
COc1ccc(-c2cnc(N3CCC(NCCCc4ncc(C(=O)NO)s4)CC3)c(C#N)c2-c2ccc(C#N)c(F)c2)cc1O | nM | 0.74

###

Recorded IC50 for the following compounds
system_tested: HDAC8 (Homo sapiens (Human), UniProt Q9BY41)
Sequence (Q9BY41 whole entry): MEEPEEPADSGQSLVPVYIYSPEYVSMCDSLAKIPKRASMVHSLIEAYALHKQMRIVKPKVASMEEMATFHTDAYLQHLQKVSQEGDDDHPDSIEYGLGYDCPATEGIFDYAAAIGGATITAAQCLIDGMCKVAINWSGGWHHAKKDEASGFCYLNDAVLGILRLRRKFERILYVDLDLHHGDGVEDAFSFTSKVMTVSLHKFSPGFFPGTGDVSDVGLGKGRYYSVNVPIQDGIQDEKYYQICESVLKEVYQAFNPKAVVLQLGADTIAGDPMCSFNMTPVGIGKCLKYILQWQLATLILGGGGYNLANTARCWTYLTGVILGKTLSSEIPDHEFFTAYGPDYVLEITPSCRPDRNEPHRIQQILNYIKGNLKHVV
assay_notes: In vitro enzyme inhibition assay - HDAC (HDAC-Glo I/II), HDAC8
Assay type: biochemical
condition_description: read-out: HDAC IC50 (nM) HDAC 8
Where a name gives a salt, the structure may show the parent alone.
property: IC50 (nM)

compound | property | measured_result
Cc1noc2cc(-c3cnc(N4CCC(NCc5ccc(/C=C/C(=O)NO)cc5)CC4)c(C#N)c3-c3ccc(C#N)c(F)c3)c(F)cc12 [Example 110] | IC50 | 137
CC(C)(O)COc1ccc(-c2cnc(N3CCC(NCc4ccc(/C=C/C(=O)NO)cn4)CC3)c(C#N)c2-c2ccc(C#N)c(F)c2)cc1O [Example 205, formate] | IC50 | 100
CNC1CCN(c2ncc(-c3ccc(OCCCCCCC(=O)NO)c(O)c3)c(-c3ccc(C#N)c(F)c3)c2C#N)CC1 [Example 24, hydrochloride] | IC50 | 118
